System: Cryptococcus neoformans
Assay: Antifungal activity against Cryptococcus neoformans ATCC 90113
Format: functional, organism-based
A collection of compounds and their measured IC50
Could you kindly put the unit after your number?

Example results:
1. COc1cc(NC(C)CCCNCOC(=O)NCCCC(C)Nc2cc(OC)cc3cccnc23)c2ncccc2c1.Cl.Cl (stereo not given) : 4.5 µg/mL
2. COc1cc(NC(C)CCCNC(=O)NC(CCCN)C(=O)NCCCC(C)Nc2cc(OC)cc3cccnc23)c2ncccc2c1.Cl (single isomer, unassigned; 37) : 15 µg/mL
3. COc1cc(NC(C)CCCNC(=S)NCCCC(C)Nc2cc(OC)cc3cccnc23)c2ncccc2c1.Cl.Cl (stereo not given) : 15 µg/mL
4. COc1cc(NC(C)CCCNC(=O)C[C@H](N)C(=O)NCCCC(C)Nc2cc(OC)cc3ccc(C(C)(C)C)nc23)c2nc(C(C)(C)C)ccc2c1.Cl (stereo not given in full) : 10 µg/mL
5. COc1cc(NC(C)CCCNC(=O)NC(CCCNC(=N)N)C(=O)NCCCC(C)Nc2cc(OC)cc3cccnc23)c2ncccc2c1.Cl (single isomer, unassigned; 39) : 15 µg/mL

Problem: Respond only with IC50 recorded for COc1cc(NC(C)CCCNC(=O)NC(CCCNC(=N)N)C(=O)NCCCC(C)Nc2cc(OC)cc3cccnc23)c2ncccc2c1.Cl (single isomer, unassigned; 36)
Result: 6.5 µg/mL

Problem: Respond only with IC50 recorded for COc1cc(NC(C)CCCNC(=O)NC(CCCN)C(=O)NCCCC(C)Nc2cc(OC)cc3cccnc23)c2ncccc2c1.Cl (single isomer, unassigned; 40)
Result: 7 µg/mL

Problem: Respond only with IC50 recorded for COc1cc(NC(C)CCCNC(=O)N[C@@H](CCCN)C(=O)NCCCC(C)Nc2cc(OC)cc3ccc(C(C)(C)C)nc23)c2nc(C(C)(C)C)ccc2c1.Cl (stereo not given in full)
Result: 15 µg/mL

Problem: Respond only with IC50 recorded for COc1cc(NC(C)CCCNC(=O)NC(CCCCN)C(=O)NCCCC(C)Nc2cc(OC)cc3ccc(C(C)(C)C)nc23)c2nc(C(C)(C)C)ccc2c1.Cl (single isomer, unassigned)
Result: 6.45 µg/mL

Problem: Respond only with IC50 recorded for COc1cc(NC(C)CCCNC(=O)N[C@H](CCCN)C(=O)NCCCC(C)Nc2cc(OC)cc3ccc(C(C)(C)C)nc23)c2nc(C(C)(C)C)ccc2c1.Cl (stereo not given in full)
Result: 9.97 µg/mL

Problem: Respond only with IC50 recorded for COc1cc(NC(C)CCCNC(=O)C[C@H](N)C(=O)NCCCC(C)Nc2cc(OC)cc3cccnc23)c2ncccc2c1.Cl (stereo not given in full)
Result: 7.5 µg/mL

---

A collection of compounds and their measured IC50
System: Leishmania donovani
Test: Antileishmanial activity against promastigotes of Leishmania donovani by alamar blue assay
Assay type: functional, organism-based
Details: Leishmania donovani; read-out: IC50
Give the quantity in mg/L, number only.

Example results:
1. COc1cc(NC(C)CCCNC(=O)NC(CCCNC(=N)N)C(=O)NCCCC(C)Nc2cc(OC)cc3cccnc23)c2ncccc2c1.Cl (single isomer, unassigned; 39) : 19
2. COc1cc(NC(C)CCCNC(=O)CC[C@H](N)C(=O)NCCCC(C)Nc2cc(OC)cc3ccc(C(C)(C)C)nc23)c2nc(C(C)(C)C)ccc2c1.Cl (some centres not stated) : 3.9

Problem: Respond only with IC50 recorded for COc1cc(NC(C)CCCNC(=O)C(=O)NCCCC(C)Nc2cc(OC)cc3cccnc23)c2ncccc2c1.Cl.Cl (configuration not stated)
Result: 15

Problem: Respond only with IC50 recorded for COc1cc(NC(C)CCCNCOC(=O)NCCCC(C)Nc2cc(OC)cc3cccnc23)c2ncccc2c1.Cl.Cl (configuration not stated)
Result: 20

Problem: Respond only with IC50 recorded for COc1cc(NC(C)CCCNC(=O)N[C@@H](CCCCN)C(=O)NCCCC(C)Nc2cc(OC)cc3ccc(C(C)(C)C)nc23)c2nc(C(C)(C)C)ccc2c1.Cl (some centres not stated)
Result: 19

Problem: Respond only with IC50 recorded for COc1cc(NC(C)CCCNC(=O)c2cncc(C(=O)NCCCC(C)Nc3cc(OC)cc4ccc(C(C)(C)C)nc34)c2)c2nc(C(C)(C)C)ccc2c1.Cl (configuration not stated)
Result: 19

Problem: Respond only with IC50 recorded for COc1cc(NC(C)CCCNC(=S)NCCCC(C)Nc2cc(OC)cc3cccnc23)c2ncccc2c1.Cl.Cl (configuration not stated)
Result: 4
